- Test system: MARIMO;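 also: after 48 h exposure read by CellTiter-Glo luminescence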
- run.description: cell viability relative to vehicle control; higher = less cytotoxic
- applied.conditions: 10 µM; SRSF2 genotype: SRSF2 P95H/wt
Structures can show the parent of a compound that is named as a salt.
measurement.label: cell viability (%)
Express it in %; write the number only.

Param item = "Cc1nc(Nc2cnn(C3CCNCC3)c2)nc2c1N(C)C(=O)c1cc3ccccc3cc1N2C" ; retrieve measured cell viability. 50.7

So what does the record say about cell viability for CCOC(=O)C=P(c1ccccc1)(c1ccccc1)c1ccccc1 [Ethyl (triphenylphosphoranylidene) acetate] ? 90

Consider the compound shown here: "CN(C)C(=S)NN=C(c1ccccn1)c1ccccn1" What is its recorded cell viability? 11.5

// lookup cell viability for "Cc1ccc(NC(=O)c2cccc(C(C)(C)C#N)c2)cc1Nc1ccc2ncn(C)c(=O)c2c1" 44

Please report the recorded cell viability for O=C([O-])c1ccccc1O.[Na+] [Sodium salicylate] . 94.4

# get_value(readout='cell viability', item= Cc1cc2c3c([n+](C)c4ccc(F)cc4c3c1)-c1cc(F)ccc1N2C [RHPS 4 methosulfate] ) 52.5

Which cell viability value belongs to CN(C)CCC[C@@]1(c2ccc(F)cc2)OCc2cc(C#N)ccc21 [Escitalopram Oxalate] ? 85.4

Reported cell viability, compound "COc1cc2c(cc1Cc1cccc(Cl)c1F)c(=O)c(C(=O)O)cn2[C@H](CO)C(C)C" : ____ 40.2

What does the record list as cell viability for Cc1cc(C(C)Nc2ccccc2)c2nc(N3CCOCC3)cc(=O)n2c1 (stereo not given) ? 90.7

Item under review: "C=CCc1cccc(/C=N/NC(=O)CN2CCN(Cc3ccccc3)CC2)c1O" . Reported cell viability? 25.7

# input compound: "O=C(Cn1ccnc1[N+](=O)[O-])NCc1ccccc1" ; wanted: its cell viability 96.6

Consider the compound NC(C=O)C(O)C(O)C(O)CO (stereo not given) [Glucosamine sulfate] and give its measured cell viability. 101

Need cell viability of C=C1CCC[C@]2(C)C=C3OC(=O)C(C)=C3C[C@@H]12 [Atractylenolide I] , thanks. 97.2

Dear colleague, I am looking for the recorded cell viability of the following compound: CC(=O)OCC1=C(C(=O)O)N2C(=O)[C@@H](NC(=O)CSc3ccncc3)[C@H]2SC1 [cephapirin sodium] 106

# get_value(readout='cell viability', item= C=C1CC[C@H]2C(=C)CC[C@H]3C(=C)C(=O)O[C@@H]3[C@@H]12 [Dehydrocostus Lactone] ) 13.7

Dear colleague, I am looking for the recorded cell viability of the following compound: C=C1C[C@@]23CC[C@H]4[C@@](C)(CCC[C@@]4(C)C(=O)O[C@@H]4O[C@H](CO)[C@@H](O)[C@H](O)[C@H]4O)[C@@H]2CC[C@]1(O[C@@H]1O[C@H](CO)[C@@H](O)[C@H](O)[C@H]1O)C3 [Rubusoside] 110

# input compound: "O=S(=O)(NCCSSCCNS(=O)(=O)c1cc(Cl)ccc1Cl)c1cc(Cl)ccc1Cl" ; wanted: its cell viability 61

If you can, please state the reported cell viability value of COc1ccc2c(c1)c(CC(=O)OCC(=O)O)c(C)n2C(=O)c1ccc(Cl)cc1 [Acemetacin (Emflex)] . 97.8

Return reported cell viability; argument: "CCCCN(Cc1ccc(C(=O)NO)cc1)C(=O)Nc1ccccc1" 6.74

Entry under review: CNC[C@H](O)c1ccc(O)c(O)c1 [Epinephrine bitartrate (Adrenalinium)] . Reported cell viability? 102

What cell viability value was documented for this compound, "O=c1ccc2ccc(OCCCCN3CCN(c4cccc5sccc45)CC3)cc2[nH]1" ? 43.1

Which cell viability value belongs to "c1cncc(-c2cn[nH]n2)c1" ? 88.4

Given the compound "CC(C)COc1ccc(CNC(=O)N(Cc2ccc(F)cc2)C2CCN(C)CC2)cc1" , what is its reported cell viability? 2.06

Endpoint output: cell viability of Cc1cc(O)cc(OC2OC(CO)C(O)C(O)C2O)c1 (stereo not given) [Orcinol glucoside] . Value? 97.5

Look at this compound and give its reported cell viability. "COc1ccccc1OCCN" 98

Would you mind telling me what cell viability value was observed for C=C(C)C1CC=C(C)CC1 (single isomer, unassigned; (+)) [(+)-Dipentene] ? 104

Recorded cell viability of "Cc1c(C)c(NCC(=O)N(C)C2CCN(Cc3ccc(C(N)=O)cc3)CC2)c(C)c(C)c1N" , please. 99.4

Given the entry Cc1nc(C)c(C)nc1C [Tetramethylpyrazine] , report its measured cell viability. 107

Reported cell viability for "N[C@@]1(C(=O)O)CS(=O)(=O)[C@H]2[C@H](C(=O)O)[C@H]21" : what is it? 107

Returns the measured cell viability for the input compound. Input: Cc1cc(N2CCN([C@@H]3CN[C@H](C(=O)N4CCSC4)C3)CC2)n(-c2ccccc2)n1 [Teneligliptin hydrobromide] 86.8

Please report the recorded cell viability for COc1cc2c(Oc3ccc4[nH]c(C)cc4c3F)ccnc2cc1OCC1(N)CC1 [Anlotinib (AL3818) dihydrochloride] . 5.61

// lookup cell viability for "C[Si](C)(C)CCOCn1ccc2c(-c3cn[nH]c3)ncnc21" 98.6

Record request: cell viability value, item "COc1cc2c(Nc3ccc(NC(=O)c4ccccc4)cc3)ncnc2cc1OCCCN1CCOCC1" 62.5

What does the record list as cell viability for "COc1cc(C(C)=O)ccc1OCCCN1CCC(c2noc3cc(F)ccc23)CC1" ? 68.2

# input compound: "CN(c1ccccc1CNc1nc(Nc2ccc3c(c2)CC(=O)N3)ncc1C(F)(F)F)S(C)(=O)=O" ; wanted: its cell viability 8.93
